Attribution: the supplement of paper PMC10567573

B1: VAMP4 (parent)
chain: IMALVAAILLLVIIILIVMKYRT

# Variants of: B1
# assay details: protein stability index of a GFP-peptide fusion (GPS, HEK-293T) (PSI 1-6); higher = more stable;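 also: lentivirally expressed fusions sorted by FACS into six bins by GFP to DsRed ratio, PSI derived from sequencing read proportions per bin multiplied by bin number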
# test settings: c terminus: native
reported metric: protein stability index
// keep it numeric: no unit symbol after the value

Exam item: Please give the measured protein stability index for this variant: IMALVAAILKLVIIILIVMKYRT [L10K]
Marked response: 1.97

Exam item: For IMALVAAILLLVIIILIVDKYRT [M19D] , what is its reported protein stability index?
Marked response: 3.19

Exam item: Data request, read-out protein stability index, for IMALVAAILFLVIIILIVMKYRT [L10F]
Marked response: 3.43

Exam item: protein stability index lookup needed for IRALVAAILLLVIIILIVMKYRT [M2R] , thanks.
Marked response: 3.53

Exam item: Consider the variant shown here: AMALVAAILLLVIIILIVMKYRT [I1A] What is its recorded protein stability index?
Marked response: 3.25

Exam item: For IMALVAAILLLVIGILIVMKYRT [I14G] , what is its reported protein stability index?
Marked response: 3.44

Exam item: Which protein stability index value belongs to IMALVAAILLLVIIILIVMKYRW [T23W] ?
Marked response: 3.69

Exam item: Quick check: protein stability index of IMALVAAILLLVIIILIVMKLRT [Y21L] ?
Marked response: 3.28

Exam item: # query: protein stability index of entry IMALVKAILLLVIIILIVMKYRT [A6K]
Marked response: 2.68

Exam item: # protein stability index lookup, item IMNLVAAILLLVIIILIVMKYRT [A3N]
Marked response: 2.46

Exam item: State the recorded protein stability index for this entry: IMALVAAILLLVIIILIVMKYRN [T23N]
Marked response: 3.18

Exam item: I would be grateful if you could share the reported protein stability index for IMALVAAHLLLVIIILIVMKYRT [I8H] .
Marked response: 2.14

Exam item: // query protein stability index value for entry IMALQAAILLLVIIILIVMKYRT [V5Q]
Marked response: 1.83

Exam item: Find the recorded protein stability index belonging to IMALVAAILLLVIIILIVHKYRT [M19H] and report it.
Marked response: 3.08

Exam item: Reported protein stability index, variant IYALVAAILLLVIIILIVMKYRT [M2Y] : ____
Marked response: 3.22

Exam item: Sample IIALVAAILLLVIIILIVMKYRT [M2I] — what was its protein stability index?
Marked response: 3.15

Exam item: Endpoint output: protein stability index of IMALVAAITLLVIIILIVMKYRT [L9T] . Value?
Marked response: 3.08

Exam item: What measured protein stability index goes with IMALVAAWLLLVIIILIVMKYRT [I8W] ?
Marked response: 2.47

Exam item: Could you tell me which protein stability index is on file for IMALVAMILLLVIIILIVMKYRT [A7M] ?
Marked response: 3.09

Exam item: Given IMALVAAILLGVIIILIVMKYRT [L11G] , state its recorded protein stability index.
Marked response: 3.71

Exam item: Any idea what protein stability index was measured for IMALVAAILLLVIIILIVMKYGT [R22G] ?
Marked response: 3.6

Exam item: Param item = IMAIVAAILLLVIIILIVMKYRT [L4I] ; retrieve measured protein stability index.
Marked response: 3.33

Exam item: GET /values?readout=protein stability index&item= IMALDAAILLLVIIILIVMKYRT [V5D]
Marked response: 2.77

Exam item: Item IMALVAAILLLVIIILIVMKYRC [T23C] has what recorded protein stability index?
Marked response: 3.53

Exam item: Need protein stability index of IMALHAAILLLVIIILIVMKYRT [V5H] , thanks.
Marked response: 2.13

Exam item: Sample IMALVAAILLTVIIILIVMKYRT [L11T] — what was its protein stability index?
Marked response: 3.56

Exam item: May I ask what protein stability index has been recorded for IMALVAAILLLVIIILTVMKYRT [I17T] ?
Marked response: 3.26

Exam item: I'd like to know its protein stability index. The variant in question is IMALVAAILLLVIIQLIVMKYRT [I15Q]
Marked response: 1.89

Exam item: What measured protein stability index goes with IMALVAAILLLVCIILIVMKYRT [I13C] ?
Marked response: 3.25

Exam item: Which protein stability index value is on record for IMAHVAAILLLVIIILIVMKYRT [L4H] ?
Marked response: 2.36

Exam item: Need protein stability index, item IMALVAAILLLWIIILIVMKYRT [V12W]
Marked response: 2.65

Exam item: Entry IMAKVAAILLLVIIILIVMKYRT [L4K] : reported protein stability index = ?
Marked response: 2.78

Exam item: Record request: protein stability index value, item IMALVAAILLLVIIILIVMKYRF [T23F]
Marked response: 3.3

Exam item: Which protein stability index value belongs to IMALVAADLLLVIIILIVMKYRT [I8D] ?
Marked response: 3.13

Exam item: Endpoint output: protein stability index of IMALVAAILLLVIIILIFMKYRT [V18F] . Value?
Marked response: 3.09

Exam item: Can you look up the measured protein stability index of IMDLVAAILLLVIIILIVMKYRT [A3D] for me?
Marked response: 1.33

Exam item: Item IMALVAAILLLVQIILIVMKYRT [I13Q] has what recorded protein stability index?
Marked response: 2.86

Exam item: Using the record for IMALEAAILLLVIIILIVMKYRT [V5E] , report its protein stability index.
Marked response: 2.42

Exam item: // lookup protein stability index for IMALVAAILLLVIIILIVMKTRT [Y21T]
Marked response: 3.13

Exam item: // lookup protein stability index for IMALVAAILLLVIIILIGMKYRT [V18G]
Marked response: 2.66

Exam item: Find the recorded protein stability index belonging to IMALVAAILELVIIILIVMKYRT [L10E] and report it.
Marked response: 1.79

Exam item: What does the record list as protein stability index for IMALVAAILLLVIIILIVMKGRT [Y21G] ?
Marked response: 3.22
